Value source: paper PMC7037671

Measurement Description: Cytotoxicity / cell viability by MTT assay
Format: cell-based, murine
Particulars: mouse, RAW 264.7 macrophage cells; RAW 264.7 cells, MTT assay; means ± SD, n = 3; read-out: CC50
Experimental: The nitrite/nitrate oxidized from NO was detected by the Griess reagent as previously reported with slight modifications. […] Then culture supernatant was mixed with an equal volume of Griess reagent I and II (Beyotime, Shanghai, China), and measured at 540 nm using a microplate reader (Bio-Rad Laboratories, Inc., Kyoto, Japan). Cell viability was evaluated using MTT assay.

Molecule	CC50 at 24 h [µM]
COc1cc(O)c2c(c1)C(=O)C(C[C@H](C)O)=C(C)C2=O	30.7
COC1=CC(=O)c2c(cc(OC)c(C(C)OC(C)=O)c2O)C1=O (stereo not shown)	50.3
COC1=CC(=O)c2c(O)c(C)c(CC(C)=O)c(O)c2C1=O	48.4
COC1=CC(=O)c2c(cc(OC)c(C(C)O)c2O)C1=O (stereo not shown)	15.8

====

Measurement Description: Cytotoxicity / cell viability by MTT assay
Assay type: cell-based, murine
Particulars: mouse; RAW 264.7 cells, MTT assay; means ± SD, n = 3; read-out: CC50
Assay Endpoint: CC50 at 24 h (µM)

Compound	Assay Endpoint	Measured Result
COC1=CC(=O)c2c(O)c(C)c(CC(C)O)c(O)c2C1=O (stereo not shown)	CC50 at 24 h	59.2

====

Measurement Description: Cytotoxicity / cell viability by MTT assay
Type: cell-based, murine
Particulars: mouse; RAW 264.7 cells, MTT assay, tested at 50 μM; read-out: CC50 (cytotoxicity, class symbol)

Compound	CC50 at 24 h
COC1=CC(=O)c2c(O)c(C)c3c(c2C1=O)OC(C)C3 (stereo not shown) [Compound 3, anhydrojavanicin]	> 50 µM

====

Tested on: LPS-induced NO production in the murine macrophage cell line (RAW 264.7 cells)
Measurement Description: Inhibition of LPS-induced NO production (Griess reagent)
Type: cell-based
Particulars: Mus musculus, RAW264.7; RAW 264.7 cells, LPS 1 µg/mL, 24 h; means ± SD, n = 3; read-out: IC50 against LPS-induced NO production
Assay Endpoint: IC50 (µM)

Molecule	Measured Result
COC1=CC(=O)c2c(O)c(C)c3c(c2C1=O)OC(C)C3 (stereo not drawn) [Compound 3, anhydrojavanicin]	16
CCc1c(OC)cc2c(c1O)C(=O)C=C(OC)C2=O	7.7
COC1=CC(=O)c2c(O)c(C)c3c(c2C1=O)OC(CO)C3 (stereo not drawn)	49.7

====

Tested on: LPS-induced NO production in the murine macrophage cell line (RAW 264.7 cells)
Measurement Description: Inhibition of LPS-induced NO production (Griess reagent)
Assay type: cell-based
Particulars: Mus musculus, RAW264.7; RAW 264.7 cells, LPS 1 µg/mL, 24 h; means ± SD, n = 3; read-out: IC50 against LPS-induced NO production
pIC50: −log10 of the molar value.
// n strictly below 5 in pIC50; y otherwise

Compound	Label
COc1ccc2c(c1)c(CC(=O)O)c(C)n2C(=O)c1ccc(Cl)cc1 [Indomethacin, reference compound]	n
COC1=CC(=O)c2c(O)c(CO)c3c(c2C1=O)OC(C)C3 (centres unmarked)	n
COC1=CC(=O)c2c(O)c(C)c(CC(C)=O)c(O)c2C1=O	y
COC1=CC(=O)c2c(O)c(C)c(CC(C)O)c(O)c2C1=O (centres unmarked)	n
COc1cc(O)c2c(c1)C(=O)C(C[C@H](C)O)=C(C)C2=O	y
COC1=CC(=O)c2c(cc(OC)c(C(C)OC(C)=O)c2O)C1=O (centres unmarked)	y
